Overview of recorded human MASP1 IC50 for various binders
# subject of test: T1, recombinant human MASP1 active protease (amino acids 297-699, C-terminal His Tag) (human, UniProt P48740 297-699)
# T1 sequence: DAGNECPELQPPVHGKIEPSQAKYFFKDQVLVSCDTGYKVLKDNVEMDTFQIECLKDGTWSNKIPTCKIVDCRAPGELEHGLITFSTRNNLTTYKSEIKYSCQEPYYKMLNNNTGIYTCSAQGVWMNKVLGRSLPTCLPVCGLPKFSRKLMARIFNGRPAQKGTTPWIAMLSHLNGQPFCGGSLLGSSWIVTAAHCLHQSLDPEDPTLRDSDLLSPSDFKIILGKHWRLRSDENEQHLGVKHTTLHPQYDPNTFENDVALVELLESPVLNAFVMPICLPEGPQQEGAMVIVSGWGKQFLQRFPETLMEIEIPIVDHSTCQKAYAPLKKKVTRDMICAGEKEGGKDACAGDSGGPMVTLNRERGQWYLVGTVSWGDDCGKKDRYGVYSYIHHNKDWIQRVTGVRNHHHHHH
# measurement protocol: cell-based or functional assay
Bridge positions count the residues as written; N and C are the ends. Square brackets hold non-standard residues; d marks the D form. Primed or numbered codes have the meaning given here. Ends that are not written are not given here. TTDS(3) = 1,13-Diamino-4,7,10-trioxatridecan-succinamic acid; Oic = O=C(O)[C@@H]1C[C@@H]2CCCC[C@@H]2N1; tBuAla = CC(C)(C)C[C@H](N)C(=O)O; Pen = CC(C)(S)[C@H](N)C(=O)O; Nle = CCCC[C@H](N)C(=O)O; Sar = CNCC(=O)O
measured parameter: human MASP1 IC50 (nM)

binder="AICSRS[tBuAla]P[Oic]I[Pen]IPD-NH2 (disulfide 3-11; N-terminus assumed; SMILES CC[C@H](C)[C@H](NC(=O)[C@H](C)N)C(=O)N[C@H]1CSSC(C)(C)[C@@H](C(=O)N[C@H](C(=O)N2CCC[C@H]2C(=O)N[C@@H](CC(=O)O)C(N)=O)[C@@H](C)CC)NC(=O)[C@H]([C@@H](C)CC)NC(=O)[C@@H]2C[C@@H]3CCCC[C@@H]3N2C(=O)[C@@H]2CCCN2C(=O)[C@H](CC(C)(C)C)NC(=O)[C@H](CO)NC(=O)[C@H](CCCNC(=N)N)NC(=O)[C@H](CO)NC1=O) [AIC+SRS-((tBu)A)-P-(Oic)-I-(Pen)+IPD-NH2]" readout_number=2.8
binder="[Nle]ICSRS[tBuAla]PPI[Pen]IPD-NH2 (disulfide 3-11; N-terminus assumed; SMILES CCCC[C@H](N)C(=O)N[C@H](C(=O)N[C@H]1CSSC(C)(C)[C@@H](C(=O)N[C@H](C(=O)N2CCC[C@H]2C(=O)N[C@@H](CC(=O)O)C(N)=O)[C@@H](C)CC)NC(=O)[C@H]([C@@H](C)CC)NC(=O)[C@@H]2CCCN2C(=O)[C@@H]2CCCN2C(=O)[C@H](CC(C)(C)C)NC(=O)[C@H](CO)NC(=O)[C@H](CCCNC(=N)N)NC(=O)[C@H](CO)NC1=O)[C@@H](C)CC) [(Nle)-IC+SRS-((tBu)A)-PPI-(Pen)+IPD-NH2]" readout_number=2.6
binder="[Sar]ICSRS[tBuAla]PPI[Pen]IP-{TTDS(3)-NH2} (disulfide 3-11) [((N-Me)G)-IC+SRS-((tBu)A)-PPI-(Pen)+IP-(TTDS)-NH2]" readout_number=2.4
